Listed next: entries and their corresponding pIC50.
target: KRAS WT (Homo sapiens (Human), UniProt P01116+P62937); experiment: Ras-Raf disruption/FRET/MOA assay (BRAF RBD, Cyclophilin A); type: biochemical; details: read-out: KRAS WT FRET data IC50
Sequence (P01116 other isoform, or with tags, fused parts or gaps): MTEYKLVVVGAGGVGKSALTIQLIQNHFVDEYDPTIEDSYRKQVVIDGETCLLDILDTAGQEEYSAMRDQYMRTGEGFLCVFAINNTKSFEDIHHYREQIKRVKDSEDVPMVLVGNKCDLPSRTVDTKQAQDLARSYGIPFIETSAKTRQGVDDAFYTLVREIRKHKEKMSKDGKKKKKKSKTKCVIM
Sequence (P62937 whole entry): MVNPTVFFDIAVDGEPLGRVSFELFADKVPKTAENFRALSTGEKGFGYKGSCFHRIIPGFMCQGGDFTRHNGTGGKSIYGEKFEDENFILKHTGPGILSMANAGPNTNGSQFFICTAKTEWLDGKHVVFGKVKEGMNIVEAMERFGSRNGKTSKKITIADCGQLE
pIC50: −log10 of the molar value.

Below are worked cases with known answers.
CCN(CC)C(=O)N(C)[C@H](C(=O)N[C@H]1Cc2nc(cs2)-c2ccc3c(c2)c(c(-c2cccnc2[C@H](C)OC)n3CC)CC(C)(C)COC(=O)[C@@H]2CCCN(N2)C1=O)C(C)C [Compound A351]; 7.00 to 8.00
CCn1c(-c2cccnc2[C@H](C)OC)c2c3cc(ccc31)-c1cccc(c1)C[C@H](NC(=O)[C@H](C(C)C)N(C)C(=O)C1COC1)C(=O)N1CCC[C@H](N1)C(=O)OCC(C)(C)C2 [Compound A246]; 5.00 to 6.00

Attention now turns to another entry.
Input CCn1c(-c2cccnc2[C@H](C)OC)c2c3cc(ccc31)-c1csc(n1)C[C@H](NC(=O)[C@H](C(C)C)N(C)C(=O)N1C3COCC1C3)C(=O)N1CCC[C@H](N1)C(=O)OCC(C)(C)C2 [Compound A540] . Output pIC50: 6.00 to 7.00

====

Measured pIC50, listed per entry.
target: NRAS Q61R (Homo sapiens (Human), UniProt P01111+P62937, Q61R); assay: Ras-Raf disruption/FRET/MOA assay (BRAF RBD, Cyclophilin A); format: biochemical
Sequence (P01111 whole entry Q61R): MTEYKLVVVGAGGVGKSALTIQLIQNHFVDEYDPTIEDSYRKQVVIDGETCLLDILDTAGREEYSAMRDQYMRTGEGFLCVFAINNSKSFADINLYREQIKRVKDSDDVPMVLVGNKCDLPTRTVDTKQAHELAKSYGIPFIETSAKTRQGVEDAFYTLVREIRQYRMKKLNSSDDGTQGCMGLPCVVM
Sequence (P62937 whole entry): as the sequence (P62937 whole entry) above
pIC50: −log10 of the molar value.

CCn1c(-c2cccnc2[C@H](C)OC)c2c3cc(ccc31)-c1csc(n1)C[C@H](NC(=O)N1CCOCC1)C(=O)N1CCC[C@H](N1)C(=O)OCC(C)(C)C2; 6.00 to 7.00

pIC50 in this record for CCn1c(-c2cccnc2[C@H](C)OC)c2c3cc(ccc31)-c1cc(O)cc(c1)C[C@H](NC(=O)[C@H](C(C)C)N(C)C(=O)[C@@]1(F)CCN(C(=O)OC)C1)C(=O)N1CCC[C@H](N1)C(=O)OCC(C)(C)C2 : 6.00 to 7.00

Query CCn1c(-c2cccnc2[C@H](C)OC)c2c3cc(ccc31)-c1csc(n1)C[C@H](NC(=O)[C@H](C(C)C)N(C)C(=O)N1CCC[C@@H]1CN(C)C)C(=O)N1CCC[C@H](N1)C(=O)OCC(C)(C)C2 yields pIC50 of 5.00 to 6.00

Reported pIC50 for CCn1c(-c2cccnc2[C@H](C)OC)c2c3cc(ccc31)-c1csc(n1)C[C@H](NC(=O)N1CCC1)C(=O)N1CCC[C@H](N1)C(=O)OCC(C)(C)C2 was 6.00 to 7.00

// field: pIC50; key: CCn1c(-c2cccnc2[C@H](C)OC)c2c3cc(ccc31)-c1csc(n1)C[C@H](NC(=O)[C@H](C(C)C)N(C)C(=O)N1CC(C(=O)N3CCOCC3)C1)C(=O)N1CCC[C@H](N1)C(=O)OCC(C)(C)C2 ; value = 6.00 to 7.00

Looking up CCn1c(-c2cccnc2[C@H](C)OC)c2c3cc(ccc31)-c1csc(n1)C[C@H](NC(=O)[C@H](C(C)C)N(C)C(=O)N1C[C@H](N)[C@@H](O)C1)C(=O)N1CCC[C@H](N1)C(=O)OCC(C)(C)C2 , I found its pIC50 recorded as 6.00 to 7.00

Summary for this molecule, CCn1c(-c2cccnc2[C@H](C)OC)c2c3cc(ccc31)-c1csc(n1)C[C@H](NC(=O)[C@H](C(C)C)N(C)C(=O)N(C)C[C@H]1CCCN1C)C(=O)N1CCC[C@H](N1)C(=O)OCC(C)(C)C2 : pIC50 is 5.00 to 6.00

CCn1c(-c2cccnc2[C@H](C)OC)c2c3cc(ccc31)-c1csc(n1)C[C@H](NC(=O)[C@H](C(C)C)N(C)C(=O)N1CC3(CN(C)C3)C1)C(=O)N1CCC[C@H](N1)C(=O)OCC(C)(C)C2 yielded pIC50 of 6.00 to 7.00

CCn1c(-c2cccnc2[C@H](C)OC)c2c3cc(ccc31)-c1csc(n1)C[C@H](NC(=O)[C@H](C(C)C)N(C)C(=O)N1CC3(CCN(C)C3)C1)C(=O)N1CCC[C@H](N1)C(=O)OCC(C)(C)C2 has a reported pIC50 of 6.00 to 7.00
